Recorded values, source ChEMBL document CHEMBL2086335.

Reported MIC values follow for various compounds
Tested on: Enterococcus faecalis
Assay: Antibacterial activity against Enterococcus faecalis ATCC 29212 by microbroth dilution method
Type: functional
property_measured: MIC

compound	observed_result
NCCC[C@H](N)CC(=O)NCCC[C@H](N)CC(=O)N[C@@H]1[C@H](O)[C@@H](OC(N)=O)[C@@H](CO)O[C@H]1NC1=N[C@@H]2C(=O)NC[C@@H](O)[C@H]2N1 [STREPTOTHRICIN E]	64 µg/mL
CC(=O)N[C@@H](CCCNC(=O)C[C@@H](N)CCCNC(=O)C[C@@H](N)CCCN)CC(=O)N[C@@H]1[C@H](O)[C@@H](OC(N)=O)[C@@H](CO)O[C@H]1/N=C1\N[C@H]([C@H](O)CN)[C@@H](C(=O)O)N1	> 256 µg/mL
CC(=O)N[C@@H](CCCNC(=O)C[C@@H](N)CCCNC(=O)C[C@@H](N)CCCN)CC(=O)N[C@@H]1[C@H](O)[C@@H](O)[C@@H](COC(N)=O)O[C@H]1/N=C1\N[C@H]([C@H](O)CN)[C@@H](C(=O)O)N1	> 256 µg/mL
CC(=O)N[C@@H](CCCNC(=O)C[C@@H](N)CCCNC(=O)C[C@@H](N)CCCN)CC(=O)N[C@@H]1[C@H](O)[C@@H](O)[C@@H](COC(N)=O)O[C@H]1/N=C1\N[C@@H]2[C@H](O)CNC(=O)[C@H]2N1	> 256 µg/mL
NCCC[C@H](N)CC(=O)NCCC[C@H](N)CC(=O)N[C@@H]1[C@H](O)[C@@H](O)[C@@H](COC(N)=O)O[C@H]1/N=C1\N[C@@H]2[C@H](O)CNC(=O)[C@H]2N1	> 256 µg/mL
CC(=O)N[C@@H](CCCNC(=O)C[C@@H](N)CCCN)CC(=O)N[C@@H]1[C@H](O)[C@@H](O)[C@@H](COC(N)=O)O[C@H]1/N=C1\N[C@@H]2[C@H](O)CNC(=O)[C@H]2N1	> 256 µg/mL
C[C@H]1COc2c(N3CCN(C)CC3)c(F)cc3c(=O)c(C(=O)O)cn1c23.C[C@H]1COc2c(N3CCN(C)CC3)c(F)cc3c(=O)c(C(=O)O)cn1c23.O [LEVOFLOXACIN]	0.5 µg/mL

---

System: Escherichia coli
Assay: Antibacterial activity against Escherichia coli ATCC 25922 by microbroth dilution method
Type: functional

test_smiles	sign	MIC (µg/mL)
CC(=O)N[C@@H](CCCNC(=O)C[C@@H](N)CCCNC(=O)C[C@@H](N)CCCN)CC(=O)N[C@@H]1[C@H](O)[C@@H](O)[C@@H](COC(N)=O)O[C@H]1/N=C1\N[C@@H]2[C@H](O)CNC(=O)[C@H]2N1	=	64
NCCC[C@H](N)CC(=O)NCCC[C@H](N)CC(=O)N[C@@H]1[C@H](O)[C@@H](OC(N)=O)[C@@H](CO)O[C@H]1NC1=N[C@@H]2C(=O)NC[C@@H](O)[C@H]2N1	=	16
CC(=O)N[C@@H](CCCNC(=O)C[C@@H](N)CCCNC(=O)C[C@@H](N)CCCN)CC(=O)N[C@@H]1[C@H](O)[C@@H](O)[C@@H](COC(N)=O)O[C@H]1/N=C1\N[C@H]([C@H](O)CN)[C@@H](C(=O)O)N1	>	256

---

Reported MIC values follow for various compounds
System: Mycobacterium tuberculosis
Test: Antibacterial activity against Mycobacterium tuberculosis H37Rv by microbroth dilution method
Assay type: functional

test_smiles	unit_abbreviation	sign	MIC
C[C@H]1COc2c(N3CCN(C)CC3)c(F)cc3c(=O)c(C(=O)O)cn1c23.C[C@H]1COc2c(N3CCN(C)CC3)c(F)cc3c(=O)c(C(=O)O)cn1c23.O	µg/mL	=	0.5
CC(=O)N[C@@H](CCCNC(=O)C[C@@H](N)CCCN)CC(=O)N[C@@H]1[C@H](O)[C@@H](O)[C@@H](COC(N)=O)O[C@H]1/N=C1\N[C@@H]2[C@H](O)CNC(=O)[C@H]2N1	µg/mL	>	256
CC(=O)N[C@@H](CCCNC(=O)C[C@@H](N)CCCNC(=O)C[C@@H](N)CCCN)CC(=O)N[C@@H]1[C@H](O)[C@@H](O)[C@@H](COC(N)=O)O[C@H]1/N=C1\N[C@H]([C@H](O)CN)[C@@H](C(=O)O)N1	µg/mL	>	256
CO[C@H]1/C=C/O[C@@]2(C)Oc3c(C)c(O)c4c(O)c(c(/C=N/N5CCN(C)CC5)c(O)c4c3C2=O)NC(=O)/C(C)=C\C=C\[C@H](C)[C@H](O)[C@@H](C)[C@@H](O)[C@@H](C)[C@H](OC(C)=O)[C@@H]1C	µg/mL	=	0.0625
CC(=O)N[C@@H](CCCNC(=O)C[C@@H](N)CCCNC(=O)C[C@@H](N)CCCN)CC(=O)N[C@@H]1[C@H](O)[C@@H](O)[C@@H](COC(N)=O)O[C@H]1/N=C1\N[C@@H]2[C@H](O)CNC(=O)[C@H]2N1	µg/mL	>	256
